Source: ChEMBL document CHEMBL1629472

- measurement.description: Cytotoxicity against erythrocytes assessed as hemolysis
- Type: cell-based
- condition.parameters: erythrocyte
The entries below are paired with their reported Hemolytic concentration.

{"columns": ["structure.string", "Hemolytic concentration"],
 "data": [
  ["C/C(=N\\NC(=S)Nc1ccccc1)c1ccccn1", "> 1 mM"],
  ["C/C(=N\\NC(=S)Nc1ccc(C)cc1)c1ccccn1", "> 1 mM"],
  ["C/C(=N\\NC(=S)Nc1ccccc1C)c1ccccn1", "> 1 mM"],
  ["C/C(=N\\NC(=S)Nc1ccc(Cl)cc1)c1ccccn1", "> 1 mM"],
  ["C/C(=N\\NC(=S)Nc1ccccc1Cl)c1ccccn1", "> 1 mM"],
  ["C/C(=N\\NC(=S)Nc1cccc(C)c1)c1ccccn1", "> 1 mM"],
  ["C/C(=N\\NC(=S)Nc1cccc(Cl)c1)c1ccccn1", "> 1 mM"]
]}
